Assign selectivity ratio to each entry below.
Experiment: Selectivity index, ratio of IC50 for mouse J774 cells to IC50 for Trypanosoma cruzi Tulahuen 2 epimastigotes
Format: toxicity
Details: J774 cells versus Trypanosoma cruzi Tulahuen 2 epimastigotes, read-out: Ratio IC50
I'd appreciate a reply containing only the number, no unit.

What measured selectivity ratio goes with CC1CS(=O)(=O)CCN1/N=C/c1ccc([N+](=O)[O-])o1 (configuration not stated) ? 41

What about this molecule? CN1c2nc(-c3ccccc3)[nH]c2C(N)=NS1(=O)=O 7.7

Similarly, NC1=NS(=O)(=O)N(Cc2ccccc2)c2nc(-c3ccccc3)n(Cc3ccccc3)c21 ? 22

====

Assay: Selectivity index, ratio of IC50 for mouse NCTC-929 cells to IC50 for Trypanosoma cruzi clone CL B5 epimastigotes
Type: toxicity
Settings: read-out: Ratio IC50
What selectivity ratio was measured for each of the following?

Given CC1CS(=O)(=O)CCN1/N=C/c1ccc([N+](=O)[O-])o1 (stereo not given) , state its recorded selectivity ratio. > 71.1

Moving on to NC1=NS(=O)(=O)N(Cc2ccccc2)c2nc(-c3ccccc3)n(Cc3ccccc3)c21 < 17.8

Field entry: NC1=NS(=O)(=O)Nc2nc(C3CCCCC3)[nH]c21 > 102

Also NC1=NS(=O)(=O)Nc2nc(CCc3ccccc3)[nH]c21 , if possible. > 14.6

Note, next up: O=C(Cn1ccnc1[N+](=O)[O-])NCc1ccccc1 > 9.4
